# assay.remarks: soluble on expression in E. coli; label from the status in PepcDB or PDB records
measurement.name: soluble on expression in E. coli

Observe how each entry below is paired with its result.
INSERT INTO results (sequence_code, result) VALUES
  ('MSNVAENNDGVYDAPTGITAPPIDELLKHVSSKYALVIFAAKRARQINSYYQQADEGVFEFVGPLVTPEAQEKPLSIAMREIEAGLLDHEEG', 'not soluble'),
  ('MGSDKIHHHHHHMGSQAIVTGASGFIGSSVARMLAHKGWTVHGIGSSHLAMEAQEQIGIKHWVQQDLTLASLQGLADKTGDPDIIIHCAGGSSVQASISNPYEDFARTANATLNVLEFMRRYSPASALVYPSSAAVYGQTSSLPIAESSTPKPFSPYGHHKRIAEILCESYSLQWQLSVSIVRLFSVYGAGLKKQLLWDACQKAEQGAYSFFGSGAEIRDWLHVEDASNLLILAAEYASPECVIINGGSGVGTSINEILKLVGSHFALVSAPTFSGKAREGDPDSYVADITKAQALGFIPSFSLSDGIRQYVEWFKKECML', 'not soluble'),
  ('GSMDYKDDDDKKTNWLKRIYRVRPCVKCKVAPRDWKVKNKHLRIFNMCKTCFNNSIDIGDDTYHGHVDWLMYADSKEISNT', 'soluble'),
  ('MKEKIPFYNEKEFHDMVKKTKKGTFSGWYIINKNNNSVEFSGSFNRQFKLNKPVIPVNTEYVTRKEFNEYKDSNDQRLTKIETELKSQGQRIQVVEDKVDRLTEVVMVQSQQIKTQGEAMNARMDRFESLVLKSLESIGNTLTDFGKRLDVIETRLDKIDPPKLEHHHHHH', 'not soluble'),
  ('DNYFRIHVKKLPEENKDAQGLWTWDDVEKPSENWPNGALSFKDAKKDDYGYYLDVKLKGEQAKKISFLINNTAGKNLTGDKSVEKLVPKMNEAWLDQDYKVFSYEPQPAGTVRVNYYRTDGNYDKKSLWYWGDVKNPSSAQWPDGTDFTATGKYGRYIDIPLNEAAREFGFLLLDESKGDVKIRKENYKFTDLKNHSQIFLKDDDESIYTNPYYVHD', 'soluble'),
  ('MAEHPIQGLMETAMESIKEMVDVNTIVGDAVQAPDGTVIIPISKVTFGFAAGGGEFASCCSVDEKGEDSSDDSSKPEIKFPFAGGSGAGVSINPVAFMVVGQGQIKLLPVNINSSLEKILDLIPEIIEKTKDSVKKNLKVKKEIKPGNGESCAKSSKEDENELEHHHHHH', 'soluble'),
  ('MEKLVAYKRMPLWNKQTMPEAVQQKHNTKVGTWGKITVLKGALKFIELTEEGEVLAEHLFEAGADNPMAQPQAWHRVEAATDDVEWYLEFYCKPEDYFAKKYNTNPVHSEVLEAMQTVKQGKALDLGCGQGRNSLFLAQQDFDVTAVDQNGLALEILQSIVEQEDLDMPVGLYDINSASIEQEYDFIVSTVVLMFLQADRIPAIIQNMQEKTSVGGYNLIVCAMDTEDYPCSVNFPFTFKEGELADYYKDWELVKYNENPGHLHRRDENGNRIQLRFATLLAKKIK', 'not soluble'),
  ('MGSDKIHHHHHHMTNENELLYSSELQLSALNEAIEATPDNPYLYFKRATYFYNINNFRIAQNDIQKALRMDESVAAYWLLSAQINNELKNVDRAIEEGQKALQLGNAEPILYALLANCLLEKNDTISANQYIGKLTAIAPQMAELKYVQAKKLLIGKDTSHSFLKFRECIQNNPQYIEAYIDLMSLYYKKQMYDSIMPLLIKAKRMRPNNPTLFLYEGKFYETINKNQVALAAYKEGLLCDPQAIELYKPLSDYYGRQGNYKESMYYLSKWIEKNSSDAQSIIKMGNYALKQNDEAGAVTYYKNSLSIDSSNTYLKKEIERIEKHIRYVAQDTTN', 'not soluble');

Okay, next one:
Per the records, this sequence ( MAHHHHHHMHPFYTIRYPPSKGSNESQPILVTDTAIEPLFFCIVYSIEFQCPVQTTESRTANSRSSSFPFGGRASGSGGKREANELHVCPVENTSKLLGNVTYVSCLDHNPTLLASLQTAVDAARAIPIPEDEQKVPLQLCVRLLHKQTRWLWEESRPLVEWTFKIVKTRGLSYAAVPEASSGASARNTNVEFVHASGPAQIREVLQFILKHSYEAIDLNTFSDFKSGELVFEVFVDQAR ) has soluble on expression in E. coli equal to soluble

----------
# assay.remarks: soluble on expression in E. coli; label from the status in PepcDB or PDB records
measurement.name: soluble on expression in E. coli

# annotated cases, reported soluble on expression in E. coli shown
INSERT INTO results (sequence_code, measurement_name, result) VALUES
  ('MGSDKIHHHHHHMSRMIRFHKFGAADVLRCEEQAEPSPAADEVQIRVEAVGVSWYDVLWRQNLAPSQARLPAGIGHEMAGVVTAVGEGVDDIAVGDRVASFPATSANDHPVYGDVIVLPRTAITRYPNVLTPIEASVHYTPLLIAYFAYVDLARAKAGQTALVTDASHCAGPAFVQLGRALGLKVFAATKEAAQRDYLLGLGADKVIVTEEQDLLLQIGKYTDGRGVDMVLDGMGGPQMSLLGDVLAPRGSLVLYGLQGGNQTPFPACAAFQKNIQFYVHCIGNFTGKPELGISQDQVALQRALRDINQFTADQLLTPQIIKVYPFEQVVEAHRYMDQCPCGGRVVLDMAQH', 'soluble on expression in E. coli', 'not soluble'),
  ('MGSDKIHHHHHHMVIGQKVLLARIPKMGDNYSTYLLDIEGTVCPISFVKETLFPYFTNKVPQLVQQDTRDSPVSNILSQFHIDNKEQLQAHILELVAKDVKDPILKQLQGYVWAHGYESGQIKAPVYADAIDFIKRKKRVFIYSSGSVKAQKLLFGYVQDPNAPAHDSLDLNSYIDGYFDINTSGKKTETQSYANILRDIGAKASEVLFLSDNPLELDAAAGVGIATGLASRPGNAPVPDGQKYQVYKNFETL', 'soluble on expression in E. coli', 'soluble'),
  ('MGSDKIHHHHHHMSKRMIITVGDARVGKSTVIKLLLEIFAQQGKRIKVYNQESFPVFQAYEHIATIKKFNLSNDDADAITDDLNHPELDVMIVDMPGQDIEKVIQYIESASLFEVVVKFGWNLTFLQPISHRKDCIYYLNAIIQNATNNANYVVVKNYHFAPEFREYEEKMRKKLLIIGGTEVELMALHRNHYQAMEKADKPYSQVCQDLSIILFWRSFIFQWIKKFHHSVMNNHLAIKYLGLD', 'soluble on expression in E. coli', 'not soluble'),
  ('MGSDKIHHHHHHMKVSGGEVPPFFKEGFFFTSEELTHLINVCSSTSAIISVLKDSKYRRSLVLYLKRPLSKDALLLIQTLLTTLEREDLSFGVKELEYMAYHDPLTGLPNRRYFFELGNRYLDLAKREGKKVFVLFVDLAGFKAINDTYGHLSGDEVLKTVSKRILDRVRRSDVVARYGGDEFTILLYDMKEEYLKSLLERILSTFREPVRVENKHLSVTPNIGVARFPEDGENLEELLKVADMRMYKAKEMKVPYFSLS', 'soluble on expression in E. coli', 'not soluble'),
  ('MSLTEKFRPTLKDVARQAGVSIATASRALADNPAVAASTRERIQQLASDLGYRANAQARALRSSRSNTIGVIVPSLINHYFAAMVTEIQSTASKAGLATIITNSNEDATTMSGSLEFLTSHGVDGIICVPNEECANQLEDLQKQGMPVVLVDRELPGDSTIPTATSNPQPGIAAAVELLAHNNALPIGYLSGPMDTSTGRERLEDFKAACANSKIGEQLVFLGGYEQSVGFEGATKLLDQGAKTLFAGDSMMTIGVIEACHKAGLVIGKDVSVIGFDTHPLFALQPHPLTVIDQNVEQLAQRAVSILTELIAGTVPSVTKTTIPTALIHRESIINSTLRKEGHHHHHH', 'soluble on expression in E. coli', 'soluble');

Proceed to the following item.
The reported soluble on expression in E. coli of the sequence MRGSGPRDRGSNPRPATTPTALSYISLPTSDSTRWGGLAVARARGVVLGYRRGTNTQYPQHALVKLLLDDPRKAGLYVSGIAFYRDRYGNVYKGRVLRLHGRRGGVVVVKFNPPLPGQATGGVVEVVKAGGDGLEHHHHHH was not soluble

----------
# assay.remarks: soluble on expression in E. coli; label from the status in PepcDB or PDB records
measurement.name: soluble on expression in E. coli

Observe how each entry below is paired with its result.
INSERT INTO results (sequence_code, measurement_name, result) VALUES
  ('MEQLGSEPETYQIMKTIEKSIIENDNVDLEQYLLFWEHVCNVMCSWGTIFSFVVKDVTAKLEKLTQMRSSDPDSYRTIIGMATKESENGTIRNQKPNRSGTGHLMVLNRALEFVIDLLDGVFTSNDENVSTIARSSYDKHLSQLHSWPIRTAVAAALYTLPRKPEFLCRLRGDMPEDDDNQFHDIFNRDGRDIVRRVNKLVENFELTDYNPSA', 'soluble on expression in E. coli', 'not soluble'),
  ('MGNQYVKPERTGNSPYTRSGVPPPALVKTGDKPLHRVNDRMSLELHMADERVRAAGLSPAEREWRKKWVHDQHLHADEPVVVDAVHRQLNPIRTAYRLPWDKFYLHYLKPTFGVYYGTAIRVTAPKLLMAFVVVQTAYYYWKYEVKDWTHLRGLESMPQKEVIASAPAIEEKFPGLMDKGLANPSKDDYYTPTFNKRTAYLDVGETKRPW', 'soluble on expression in E. coli', 'not soluble'),
  ('SRWQRDLTDSTVLRNMGVALGHTLLAYDSCLKGLGKLQADPARLSEDLQNAWEVLAEPIQTVMRRYGVANPYEQLKALTRGKTGIDRTTLQQFIEQLDIPAAERDRLLQLTPWGYI', 'soluble on expression in E. coli', 'not soluble'),
  ('MAHHHHHHMLCAGKGRVEATQDVARQFLRKCVERLEKNEKDMAVKFDITMTMVSLRCADQCCDLLKPGASYEKMMMGSSPVYGPCLLGLETKVHKTASECVSSFDAGLKNAKEDKEIVAAFFVLKTIKKTGAEEEVHLSSLCIALCGETVAHKTDIRDKAASSPHRLFRYAVDGACVTVSGLWIVSKDVDAREGLEVERKMREVKNQPPRSGNVKRFVDYTYKEIMRQKEKLESATGSEKKTREAQIERMEEMVKDAKELLTSPENTRPKGYSMGR', 'soluble on expression in E. coli', 'not soluble'),
  ('MATEDAVREALATVNDPEINRPITELGMVKSVEIGADGAVAVAVYLTVSGCPMRDTITQRVSDAVSRVEGVTRVDVELDVMSDEQRKELATALRGGQTEREVPFAKPGSLTRVYAVASGKGGVGKSSVTVNLAASMAADGLKVGVVDADIYGHSVPRMLGADGRPTQVENMIMPPSAHGVKVISIGMFTPGNAPVVWRGPMLHRALQQFLADVYWGDLDVLLLDLPPGTGDIAISVAQLVPNAEILVVTTPQQAAAEVAERAGAIAVQTHQKIVGVVENMSGLPCPHCGEMVDVFGTGGGQTVADGLTRTTGASVPVLGAIPIDVRLREGGDEGKPVVLSDPDSPAGAALRSIAGKLGGRQRGLSGLSLGITPKNKFLEHHHHHH', 'soluble on expression in E. coli', 'soluble'),
  ('MPVKCPGEYQVDGKKVILDEDCFMQNPEDWDEKVAEWLARELEGIQKMTEEHWKLVKYLREYWETFGSCPPIKMVTKETGFSLEKIYQLFPSGPAHGACKVAGAPKPTGCV', 'soluble on expression in E. coli', 'soluble');

// sample MSLTVRQLASLTRGAVRTLATDGAVAVLPIGAVEQHGDHLPLGTDFLLVEAVCDRAMQQLEDDRTTWVRVPTMTFGHSPHHLFAAAVSLQAGTLTDVLADVLDSLAQTGFRRIVIVNGHGGNDELVRLAVKAHSLHAEGTAAACSYWTLTAQTTAEAAATERPDRTPGHAGWFETSLMLAVHPELVADDRPFTPSDPPPLFNRSPAPGLTVERHGEWPRVGGTTDDAREASAETGRLLLGRRVAGLVAALQSLDRATATPPAASVPSTDRERGPQAEGHHHHHH , its soluble on expression in E. coli was not soluble

MARMYRALTRDIEVTVDPYYLEEQSDPDDDRYVWGYKVVIANNSDVPVKLVNRYWHITDQNGQVDEVYGPGVVGEQPQLKPGDSYEYSSGCPLDTPSGLMFGHYEMETENGEVFNVTIPAFSLDSPGLMRVLNAAALEHHHHHH yielded soluble on expression in E. coli of soluble

Entry MALEKEEEASQNGAFCVLDGLYCEEETGFVEDDLDDDGDLDFLEKSDESVVKFQFLPLLDMFLWDDDEILSLISKENETNPCFGEQILDGFLVSCRKEALDWVLRVKSHYGFTSLTAILAVNYFDRFMTSIKLQTDKPWMSQLVAVASLSLAAKVEEIQVPLLLDLQVEEARYLFEAKTIQRMELLILSTLQWRMHPVTPISFFDHIIRRFGSKWHQQLDFCRKCERLLISVIADTRFMRYFPSVLATAIMILVFEELKPCDEVEYQSQITTLLKVNQEKVNECYELLLEHNPSKKRMMNLVDQDSPSGVLDFDDSSNSSWNVSTTASVSSSSSSPEPLLKRRRVQEQQMRLPSINRMFLDVLSSPR — recorded soluble on expression in E. coli = soluble

Form field soluble on expression in E. coli, entry SFREQDIYLPIANVARIMKNAIPQTGKIAKDAKECVQECVSEFISFITSEASERCHQEKRKTINGEDILFAMSTLGFDSYVEPLKLYLQKFRE : soluble

For this sequence ( MVEVKNLVAITGPKMPYELARLLKISHARATRLAAAANAQNPTPSRARTSDAQAQQPAAASPKPPAEPVAAEPKKKRAKKATPVEAGLPPLTGKITGGHACAFDVVGESYYQPALRRLRNGRHMATDNDFVADIVAEPDNPHDPNACAVYIEGFKVGYLPRDAAADFQQQVADMGVTGTWRLQTKAKLSGGWGDRPMVGVLLSLPKSLEHHHHHH ), measured soluble on expression in E. coli is soluble

soluble on expression in E. coli recorded for this sequence, MPERDALLTDLVGDRAAEWDTSGELPRDLLVRLGADGLLCAEVAAEHGGLGLGSRENGEFTAHVGSLCSSLRSVMTSQGMAAWTVQRLGDAGQRATFLKELTSGKLAAVGFSERQAGSDLSAMRTRVRLDGDTAVVDGHKVWTTAAAYADHLVVFGLQEDGSGAVVVVPADTPGVRVERVPKPSGCRAAGHADLHLDQVRVPAGAVLAGSGASLPMLVAASLAYGRKSVAWGCVGILRACRTAAVAHARTREQFGRPLGDHQLVAGHIADLWTAEQIAARVCEYASDHWDEGSPEMVPATILAKHVAAERAAAGAATAAQVLASAGAREGHVVERAYRDAKLMEIIEGSSEMCRVMLAQHALALPA , is soluble
